Tested on: OVCAR-4
experiment: SRB anti-cancer assay, Ovarian Cancer
Assay type: cell-based, human
studyConditions: OVCAR-4 (Ovarian Cancer), 48 h; read-out: LC50 (the source's name)
Quick reference for CC50 among some molecules
Provide the reading as a plain figure in µM.

Lab book: CC50 of N=c1nc(N)c2ncn([C@@H]3O[C@H](CO)[C@@H](O)[C@H]3O)c2c(N)n1 [Compound 14-2] noted as 76.1

Here is the next item to consider.
Lab book: CC50 of N=c1nc(N)c2ncn([C@@H]3O[C@H](COC(=O)c4ccccc4)[C@@H](OC(=O)c4ccccc4)[C@H]3OC(=O)c3ccccc3)c2c(N)n1 noted as 57

###

System: TK-10
experiment: SRB anti-cancer assay, Renal Cancer
Assay type: cell-based, human
studyConditions: TK-10 (Renal Cancer), 48 h; read-out: LC50 (the source's name)
experimentalReadout: CC50 (µM)
Provide the reading as a plain figure in µM.

Lab book: CC50 of N=c1nc(N)c2ncn([C@@H]3O[C@H](CO)[C@@H](O)[C@H]3O)c2c(N)n1 noted as 64.6

###

System: SF-539
experiment: SRB anti-cancer assay, CNS Cancer
Assay type: cell-based, human
studyConditions: SF-539 (CNS Cancer), 48 h; read-out: LC50 (the source's name)
experimentalReadout: CC50

Lab book: CC50 of N=c1[nH]c(=O)c2ncn([C@@H]3O[C@H](CO)[C@@H](O)[C@H]3O)c2c(=O)[nH]1 [Compound 14-1] noted as > 100 µM

###

System: SK-MEL-2
experiment: SRB anti-cancer assay, Melanoma
Type: cell-based, human
studyConditions: SK-MEL-2 (Melanoma), 48 h
experimentalReadout: LC50 (µM)
Provide the reading as a plain figure in µM.

Lab book: LC50 of N=c1nc(N)c2ncn([C@@H]3O[C@H](COC(=O)c4ccccc4)[C@@H](OC(=O)c4ccccc4)[C@H]3OC(=O)c3ccccc3)c2c(N)n1 noted as 26.2

Further cases:
Lab book: LC50 of N=c1nc(N)c2ncn([C@@H]3O[C@H](CO)[C@@H](O)[C@H]3O)c2c(N)n1 [Compound 14-2] noted as 76.9

###

System: SK-MEL-28
experiment: SRB anti-cancer assay, Melanoma
Type: cell-based, human
studyConditions: SK-MEL-28 (Melanoma), 48 h
Quick reference for LC50 among some compounds

Use the examples below as a reference point.
Lab book: LC50 of N=c1nc(N)c2ncn([C@@H]3O[C@H](COC(=O)c4ccccc4)[C@@H](OC(=O)c4ccccc4)[C@H]3OC(=O)c3ccccc3)c2c(N)n1 noted as 65.8 µM

Lab book: LC50 of N=c1[nH]c(=O)c2ncn([C@@H]3O[C@H](CO)[C@@H](O)[C@H]3O)c2c(=O)[nH]1 noted as > 100 µM

Further cases:
Lab book: LC50 of N=c1nc(N)c2ncn([C@@H]3O[C@H](CO)[C@@H](O)[C@H]3O)c2c(N)n1 noted as > 100 µM

###

System: COLO 205
experiment: SRB anti-cancer assay, Colon Cancer
Type: cell-based, human
studyConditions: COLO 205 (Colon Cancer), 48 h
experimentalReadout: LC50

Use the examples below as a reference point.
Lab book: LC50 of N=c1[nH]c(=O)c2ncn([C@@H]3O[C@H](CO)[C@@H](O)[C@H]3O)c2c(=O)[nH]1 noted as > 100 µM

Lab book: LC50 of N=c1nc(N)c2ncn([C@@H]3O[C@H](CO)[C@@H](O)[C@H]3O)c2c(N)n1 noted as 63.4 µM

Here is the next item to consider.
Lab book: LC50 of N=c1nc(N)c2ncn([C@@H]3O[C@H](COC(=O)c4ccccc4)[C@@H](OC(=O)c4ccccc4)[C@H]3OC(=O)c3ccccc3)c2c(N)n1 noted as 5.55 µM

###

Quick reference for CC50 among some compounds
Tested on: LOX IMVI
experiment: SRB anti-cancer assay, Melanoma
Assay type: cell-based, human
studyConditions: 48 h, read-out: LC50 (the source's name)

Lab book: CC50 of N=c1nc(N)c2ncn([C@@H]3O[C@H](COC(=O)c4ccccc4)[C@@H](OC(=O)c4ccccc4)[C@H]3OC(=O)c3ccccc3)c2c(N)n1 noted as > 100 µM

Here is the next item to consider.
Lab book: CC50 of N=c1nc(N)c2ncn([C@@H]3O[C@H](CO)[C@@H](O)[C@H]3O)c2c(N)n1 noted as 51.2 µM

###

Test system: A549/ATCC
Format: cell-based, human
studyConditions: A549/ATCC (Non-Small Cell Lung Cancer), 48 h; read-out: LC50 (the source's name)
Quick reference for CC50 among some compounds

Use the examples below as a reference point.
Measured CC50 for this entry N=c1[nH]c(=O)c2ncn([C@@H]3O[C@H](CO)[C@@H](O)[C@H]3O)c2c(=O)[nH]1 on A549/ATCC: > 100 µM

Measured CC50 for this entry N=c1nc(N)c2ncn([C@@H]3O[C@H](COC(=O)c4ccccc4)[C@@H](OC(=O)c4ccccc4)[C@H]3OC(=O)c3ccccc3)c2c(N)n1 on A549/ATCC: > 100 µM

Here is the next item to consider.
Measured CC50 for this entry N=c1nc(N)c2ncn([C@@H]3O[C@H](CO)[C@@H](O)[C@H]3O)c2c(N)n1 on A549/ATCC: > 100 µM

###

Quick reference for CC50 among some molecules
Test system: SK-OV-3
experiment: SRB anti-cancer assay, Ovarian Cancer
Format: cell-based, human
studyConditions: SK-OV-3 (Ovarian Cancer), 48 h; read-out: LC50 (the source's name)

Use the examples below as a reference point.
Lab book: CC50 of N=c1nc(N)c2ncn([C@@H]3O[C@H](CO)[C@@H](O)[C@H]3O)c2c(N)n1 noted as > 100 µM

Lab book: CC50 of N=c1[nH]c(=O)c2ncn([C@@H]3O[C@H](CO)[C@@H](O)[C@H]3O)c2c(=O)[nH]1 noted as > 100 µM

Further cases:
Lab book: CC50 of N=c1nc(N)c2ncn([C@@H]3O[C@H](COC(=O)c4ccccc4)[C@@H](OC(=O)c4ccccc4)[C@H]3OC(=O)c3ccccc3)c2c(N)n1 noted as 57 µM

###

Quick reference for EC50 among some compounds
Test system: Hepatitis B virus (HBV)
experiment: Anti-HBV assay in 2.2.15 cells (virion DNA, HBV RI)
Assay type: cell-based
studyConditions: extracellular HBV virion DNA, 9 days; read-out: EC50 Virion
Provide the reading as a plain figure in nM.

Use the examples below as a reference point.
Lab book: EC50 of N=c1[nH]c(=O)c2ncn([C@@H]3O[C@H](CO)[C@@H](O)[C@H]3O)c2c(=O)[nH]1 [Compound 14-1] noted as 131

Lab book: EC50 of N=c1nc(N)c2ncn([C@@H]3O[C@H](CO)[C@@H](O)[C@H]3O)c2c(N)n1 [Compound 14-2] noted as 397

Here is the next item to consider.
Lab book: EC50 of Nc1ccn([C@H]2CS[C@@H](CO)O2)c(=O)n1 [Compound 3TC, 2′,3′-dideoxy-L-3′-thiacytidine, reference compound] noted as 65

###

System: RXF 393
experiment: SRB anti-cancer assay, Renal Cancer
Type: cell-based, human
studyConditions: RXF 393 (Renal Cancer), 48 h; read-out: LC50 (the source's name)
experimentalReadout: CC50

Lab book: CC50 of N=c1nc(N)c2ncn([C@@H]3O[C@H](CO)[C@@H](O)[C@H]3O)c2c(N)n1 noted as 74.2 µM

Lab book: CC50 of N=c1[nH]c(=O)c2ncn([C@@H]3O[C@H](CO)[C@@H](O)[C@H]3O)c2c(=O)[nH]1 noted as > 100 µM

###

Test system: 2.2.15 cells
experiment: Toxicity in confluent 2.2.15 cells (neutral red dye uptake)
Format: cell-based, human
studyConditions: 2.2.15 cells; Example 13; read-out: CC50 (cellular toxicity)
experimentalReadout: CC50 (µM)
Provide the reading as a plain figure in µM.

Lab book: CC50 of N=c1[nH]c(=O)c2ncn([C@@H]3O[C@H](CO)[C@@H](O)[C@H]3O)c2c(=O)[nH]1 [Compound 14-1] noted as 2400

###

experiment: Cell proliferation assay, rapidly growing Daudi cells
Assay type: cell-based
studyConditions: human, rapidly growing Daudi cells, read-out: Cytotoxicity (IC50), Daudi Cells
Protocol: The toxicity of Compounds 14-1 and 14-2 was also measured in rapidly growing human foreskin fibroblast (HFF) cells and Daudi cells by cell proliferation assay (National Institute of Allergy and Infectious Diseases (NIAID), NIH, Bethesda, Md.). According to the assay method, the appropriate cells were seeded in six-well plates in MEM containing 10% FBS. […] The contents in the wells were mixed, diluted with Isotone III and counted using a Coulter counter. […]
Quick reference for IC50 at 72 h among some molecules

Lab book: IC50 at 72 h of Nc1nc2c(ncn2COCCO)c(=O)[nH]1 [Aciclovir, reference compound] noted as > 50 µg/mL

Further cases:
Lab book: IC50 at 72 h of O=C1c2ncn(Cc3ccccc3)c2N(Cc2ccccc2)C(=O)CN1Cc1ccccc1 noted as > 50 µg/mL

Lab book: IC50 at 72 h of O=C1NCC(=O)N(Cc2ccccc2)c2c1nc(Br)n2Cc1ccccc1 noted as > 50 µg/mL

The values you see were collected from patent US6677310B1.
